Each entry below carries its recorded inhibition at 1 µM.
TGT: 5-HT2C (Homo sapiens)
Sequence (P28335 33-458): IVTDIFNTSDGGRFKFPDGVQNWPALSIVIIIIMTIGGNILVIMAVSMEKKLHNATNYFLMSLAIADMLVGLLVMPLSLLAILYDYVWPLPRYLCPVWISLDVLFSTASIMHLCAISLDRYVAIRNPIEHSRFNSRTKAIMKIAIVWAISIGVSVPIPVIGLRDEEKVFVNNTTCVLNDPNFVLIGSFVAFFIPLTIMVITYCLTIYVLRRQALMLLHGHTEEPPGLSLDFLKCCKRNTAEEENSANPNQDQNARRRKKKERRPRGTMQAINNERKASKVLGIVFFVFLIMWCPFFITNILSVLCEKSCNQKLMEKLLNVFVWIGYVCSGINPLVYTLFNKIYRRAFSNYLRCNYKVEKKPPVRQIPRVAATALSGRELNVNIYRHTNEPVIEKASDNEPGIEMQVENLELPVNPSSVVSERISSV
ASSAY PROCEDURE: Radioligand binding at 5-HT2C(h) (agonist radioligand), Eurofins Cerep Panlabs
APPLIED CONDITIONS: % inh. at 1.0 μM; human receptor; duplicate; read-out: Percent Inhibition of the Binding of a Specific Radioligand, 5-HT2C
Please reply with the bare figure in % and do not write the unit itself.

Using the record for CN1C[C@@H](CO)C=C2c3cccc4[nH]cc(c34)C[C@@H]21 [(−)-1, (−)-lysergol] , state its measured inhibition at 1 µM.
86

Using the record for CN1C[C@H](CO)C=C2c3cccc4[nH]cc(c34)C[C@H]21 [(+)-1, (+)-lysergol] , state its measured inhibition at 1 µM.
99

Using the record for CN1C[C@@H](CO)C=C2c3cccc4[nH]cc(c34)C[C@H]21 [(+)-2, (+)-isolysergol] , state its measured inhibition at 1 µM.
97

Using the record for CN1C[C@H](CO)C=C2c3cccc4[nH]cc(c34)C[C@@H]21 [(−)-2, (−)-isolysergol] , state its measured inhibition at 1 µM.
44

* * *

Each entry below carries its recorded inhibition at 0.1 µM.
TGT: 5-HT2C (Homo sapiens)
ASSAY PROCEDURE: Radioligand binding at 5-HT2C(h) (agonist radioligand), Eurofins Cerep Panlabs
APPLIED CONDITIONS: % inh. at 100 nM; human receptor; duplicate; read-out: Percent Inhibition of the Binding of a Specific Radioligand, 5-HT2C
Description: FIG. 4. Histogram for 5-HT2C(h) (agonist radioligand).
Please reply with the bare figure in % and do not write the unit itself.

Field: example entries. Status: answers known.
[
  {
    "COMPOUND": "CN1C[C@H](CO)C=C2c3cccc4[nH]cc(c34)C[C@H]21 [(+)-1, (+)-lysergol]",
    "TGT": "5-HT2C (Homo sapiens)",
    "inhibition at 0.1 µM / %": 97
  },
  {
    "COMPOUND": "CN1C[C@H](CO)C=C2c3cccc4[nH]cc(c34)C[C@@H]21 [(−)-2, (−)-isolysergol]",
    "TGT": "5-HT2C (Homo sapiens)",
    "inhibition at 0.1 µM / %": 5
  },
  {
    "COMPOUND": "CN1C[C@@H](CO)C=C2c3cccc4[nH]cc(c34)C[C@H]21 [(+)-2, (+)-isolysergol]",
    "TGT": "5-HT2C (Homo sapiens)",
    "inhibition at 0.1 µM / %": 91
  }
]

Please examine the following record next.
Using the record for CN1C[C@@H](CO)C=C2c3cccc4[nH]cc(c34)C[C@@H]21 [(−)-1, (−)-lysergol] , state its measured inhibition at 0.1 µM.
41

* * *

TGT: 5-HT2B (Homo sapiens)
Sequence (P41595 whole entry): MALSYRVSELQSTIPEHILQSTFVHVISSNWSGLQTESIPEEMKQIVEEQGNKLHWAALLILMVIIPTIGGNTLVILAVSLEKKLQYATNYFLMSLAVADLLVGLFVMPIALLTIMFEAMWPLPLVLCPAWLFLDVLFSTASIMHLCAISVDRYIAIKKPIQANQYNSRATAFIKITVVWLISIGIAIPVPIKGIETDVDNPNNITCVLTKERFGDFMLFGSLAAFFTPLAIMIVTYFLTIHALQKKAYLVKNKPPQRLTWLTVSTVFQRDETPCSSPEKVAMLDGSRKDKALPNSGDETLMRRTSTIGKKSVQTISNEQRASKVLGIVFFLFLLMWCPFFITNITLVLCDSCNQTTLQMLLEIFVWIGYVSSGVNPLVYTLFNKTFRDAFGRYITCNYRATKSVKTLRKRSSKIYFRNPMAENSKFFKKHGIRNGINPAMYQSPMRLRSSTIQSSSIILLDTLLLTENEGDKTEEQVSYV
ASSAY PROCEDURE: Radioligand binding at 5-HT2B(h) (agonist radioligand), Eurofins Cerep Panlabs
APPLIED CONDITIONS: % inh. at 100 nM; human receptor; duplicate; read-out: Percent Inhibition of the Binding of a Specific Radioligand, 5-HT2B
QUANTITY: inhibition at 0.1 µM (%)
Please reply with the bare figure in % and do not write the unit itself.

Field: example entries. Status: answers known.
[
  {
    "COMPOUND": "CN1C[C@@H](CO)C=C2c3cccc4[nH]cc(c34)C[C@@H]21 [(−)-1, (−)-lysergol]",
    "QUANTITY": "inhibition at 0.1 µM",
    "RECORDED MEASUREMENT": 34
  },
  {
    "COMPOUND": "CN1C[C@@H](CO)C=C2c3cccc4[nH]cc(c34)C[C@H]21 [(+)-2, (+)-isolysergol]",
    "QUANTITY": "inhibition at 0.1 µM",
    "RECORDED MEASUREMENT": 90
  },
  {
    "COMPOUND": "CN1C[C@H](CO)C=C2c3cccc4[nH]cc(c34)C[C@H]21 [(+)-1, (+)-lysergol]",
    "QUANTITY": "inhibition at 0.1 µM",
    "RECORDED MEASUREMENT": 96
  }
]

Please examine the following record next.
Report inhibition at 0.1 µM under test system 5-HT2B (Homo sapiens) for CN1C[C@H](CO)C=C2c3cccc4[nH]cc(c34)C[C@@H]21 [(−)-2, (−)-isolysergol] .
3

* * *

TGT: 5-HT1A (Homo sapiens)
Sequence (P08908 whole entry): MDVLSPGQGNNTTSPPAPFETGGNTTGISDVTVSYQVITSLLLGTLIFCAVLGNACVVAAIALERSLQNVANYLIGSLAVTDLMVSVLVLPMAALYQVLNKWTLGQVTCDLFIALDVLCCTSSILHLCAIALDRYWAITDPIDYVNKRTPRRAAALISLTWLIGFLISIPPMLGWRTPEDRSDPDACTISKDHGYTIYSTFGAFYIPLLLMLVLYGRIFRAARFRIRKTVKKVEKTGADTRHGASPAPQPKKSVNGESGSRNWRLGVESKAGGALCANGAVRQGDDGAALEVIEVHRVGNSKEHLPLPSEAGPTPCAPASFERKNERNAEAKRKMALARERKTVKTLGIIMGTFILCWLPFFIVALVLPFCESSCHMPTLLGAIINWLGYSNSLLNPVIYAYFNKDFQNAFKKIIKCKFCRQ
ASSAY PROCEDURE: Radioligand binding at 5-HT1A(h) (agonist radioligand), Eurofins Cerep Panlabs
APPLIED CONDITIONS: % inh. at 100 nM; human receptor; duplicate; read-out: Percent Inhibition of the Binding of a Specific Radioligand, 5-HT1A
Each entry below carries its recorded inhibition at 0.1 µM.
Please reply with the bare figure in % and do not write the unit itself.

Field: example entries. Status: answers known.
[
  {
    "MOLECULE": "CN1C[C@H](CO)C=C2c3cccc4[nH]cc(c34)C[C@@H]21 [(−)-2, (−)-isolysergol]",
    "inhibition at 0.1 µM / %": 9
  },
  {
    "MOLECULE": "CN1C[C@@H](CO)C=C2c3cccc4[nH]cc(c34)C[C@H]21 [(+)-2, (+)-isolysergol]",
    "inhibition at 0.1 µM / %": 96
  },
  {
    "MOLECULE": "CN1C[C@H](CO)C=C2c3cccc4[nH]cc(c34)C[C@H]21 [(+)-1, (+)-lysergol]",
    "inhibition at 0.1 µM / %": 94
  }
]

Please examine the following record next.
Using the record for CN1C[C@@H](CO)C=C2c3cccc4[nH]cc(c34)C[C@@H]21 [(−)-1, (−)-lysergol] , state its measured inhibition at 0.1 µM.
27

* * *

TGT: 5-HT2A (Homo sapiens)
Sequence (P28223 whole entry, looked up): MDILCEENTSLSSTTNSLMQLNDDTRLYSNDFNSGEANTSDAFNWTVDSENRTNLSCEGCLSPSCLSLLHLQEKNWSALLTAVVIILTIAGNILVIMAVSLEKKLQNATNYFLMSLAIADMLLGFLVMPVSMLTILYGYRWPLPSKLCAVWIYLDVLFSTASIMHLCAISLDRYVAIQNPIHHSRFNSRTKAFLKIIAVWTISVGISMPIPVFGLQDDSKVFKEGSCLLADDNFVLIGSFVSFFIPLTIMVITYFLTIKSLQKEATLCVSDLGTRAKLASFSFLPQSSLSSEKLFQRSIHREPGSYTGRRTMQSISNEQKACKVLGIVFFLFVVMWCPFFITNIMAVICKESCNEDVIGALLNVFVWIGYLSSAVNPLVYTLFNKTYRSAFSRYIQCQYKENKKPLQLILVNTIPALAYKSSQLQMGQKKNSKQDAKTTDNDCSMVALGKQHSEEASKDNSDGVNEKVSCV
ASSAY PROCEDURE: Radioligand binding at 5-HT2A(h) (agonist radioligand), Eurofins Cerep Panlabs
APPLIED CONDITIONS: % inh. at 100 nM; human receptor; duplicate; read-out: Percent Inhibition of the Binding of a Specific Radioligand, 5-HT2A
QUANTITY: inhibition at 0.1 µM

Field: example entries. Status: answers known.
[
  {
    "COMPOUND": "CN1C[C@H](CO)C=C2c3cccc4[nH]cc(c34)C[C@H]21 [(+)-1, (+)-lysergol]",
    "inhibition at 0.1 µM": "96%"
  },
  {
    "COMPOUND": "CN1C[C@@H](CO)C=C2c3cccc4[nH]cc(c34)C[C@@H]21 [(−)-1, (−)-lysergol]",
    "inhibition at 0.1 µM": "12%"
  },
  {
    "COMPOUND": "CN1C[C@H](CO)C=C2c3cccc4[nH]cc(c34)C[C@@H]21 [(−)-2, (−)-isolysergol]",
    "inhibition at 0.1 µM": "0%"
  }
]

Please examine the following record next.
Using the record for CN1C[C@@H](CO)C=C2c3cccc4[nH]cc(c34)C[C@H]21 [(+)-2, (+)-isolysergol] , state its measured inhibition at 0.1 µM.
92%

* * *

Each entry below carries its recorded inhibition at 1 µM.
TGT: 5-HT2B (Homo sapiens)
ASSAY PROCEDURE: Radioligand binding at 5-HT2B(h) (agonist radioligand), Eurofins Cerep Panlabs
APPLIED CONDITIONS: % inh. at 1.0 μM; human receptor; duplicate; read-out: Percent Inhibition of the Binding of a Specific Radioligand, 5-HT2B
Please reply with the bare figure in % and do not write the unit itself.

[
  {
    "COMPOUND": "CN1C[C@@H](CO)C=C2c3cccc4[nH]cc(c34)C[C@@H]21 [(−)-1, (−)-lysergol]",
    "RECORDED MEASUREMENT": 87
  },
  {
    "COMPOUND": "CN1C[C@H](CO)C=C2c3cccc4[nH]cc(c34)C[C@H]21 [(+)-1, (+)-lysergol]",
    "RECORDED MEASUREMENT": 99
  },
  {
    "COMPOUND": "CN1C[C@@H](CO)C=C2c3cccc4[nH]cc(c34)C[C@H]21 [(+)-2, (+)-isolysergol]",
    "RECORDED MEASUREMENT": 93
  }
]

Please examine the following record next.
Using the record for CN1C[C@H](CO)C=C2c3cccc4[nH]cc(c34)C[C@@H]21 [(−)-2, (−)-isolysergol] , state its measured inhibition at 1 µM.
16

* * *

TGT: UniProtKB P28223
ASSAY PROCEDURE: Radioligand binding at 5-HT2A(h) (agonist radioligand), Eurofins Cerep Panlabs
APPLIED CONDITIONS: % inh. at 1.0 μM; human receptor; duplicate; read-out: Percent Inhibition of the Binding of a Specific Radioligand, 5-HT2A
Each entry below carries its recorded inhibition at 1 µM.

[
  {
    "COMPOUND": "CN1C[C@H](CO)C=C2c3cccc4[nH]cc(c34)C[C@@H]21 [(−)-2, (−)-isolysergol]",
    "inhibition at 1 µM": "20%"
  },
  {
    "COMPOUND": "CN1C[C@H](CO)C=C2c3cccc4[nH]cc(c34)C[C@H]21 [(+)-1, (+)-lysergol]",
    "inhibition at 1 µM": "97%"
  },
  {
    "COMPOUND": "CN1C[C@@H](CO)C=C2c3cccc4[nH]cc(c34)C[C@H]21 [(+)-2, (+)-isolysergol]",
    "inhibition at 1 µM": "99%"
  }
]

Please examine the following record next.
Using the record for CN1C[C@@H](CO)C=C2c3cccc4[nH]cc(c34)C[C@@H]21 [(−)-1, (−)-lysergol] , state its measured inhibition at 1 µM.
62%

Recorded values, source patent US20240343692A1.
